test: Solubility test in buffer solution at pH=1; type: physicochemical; conditions: pH=1 buffer solution, simulated gastric fluid, thermodynamic from solid; buffer solution pH=1
QUANTITY NAME: solubility at 20 min (mg/mL)
Write the value in mg/mL as a bare number.

[ask] Which solubility at 20 min reading was recorded for the compound COc1ncc(-c2ccc3nccc(-c4ccc(CN(C)C)cc4)c3c2)cc1NS(=O)(=O)c1ccc(F)cc1F [Compound 9] ?
[reply] 33.3

[ask] Value lookup for solubility at 20 min; key = COc1ncc(-c2ccc3nccc(-c4ccnnc4)c3c2)cc1NS(=O)(=O)c1ccc(F)cc1F [GSK2126458, reference compound]
[reply] 0.2

* * *

Consider the following IC50 values measured on PI3Kα (Homo sapiens).
Sequence (P42336 whole entry, species assumed): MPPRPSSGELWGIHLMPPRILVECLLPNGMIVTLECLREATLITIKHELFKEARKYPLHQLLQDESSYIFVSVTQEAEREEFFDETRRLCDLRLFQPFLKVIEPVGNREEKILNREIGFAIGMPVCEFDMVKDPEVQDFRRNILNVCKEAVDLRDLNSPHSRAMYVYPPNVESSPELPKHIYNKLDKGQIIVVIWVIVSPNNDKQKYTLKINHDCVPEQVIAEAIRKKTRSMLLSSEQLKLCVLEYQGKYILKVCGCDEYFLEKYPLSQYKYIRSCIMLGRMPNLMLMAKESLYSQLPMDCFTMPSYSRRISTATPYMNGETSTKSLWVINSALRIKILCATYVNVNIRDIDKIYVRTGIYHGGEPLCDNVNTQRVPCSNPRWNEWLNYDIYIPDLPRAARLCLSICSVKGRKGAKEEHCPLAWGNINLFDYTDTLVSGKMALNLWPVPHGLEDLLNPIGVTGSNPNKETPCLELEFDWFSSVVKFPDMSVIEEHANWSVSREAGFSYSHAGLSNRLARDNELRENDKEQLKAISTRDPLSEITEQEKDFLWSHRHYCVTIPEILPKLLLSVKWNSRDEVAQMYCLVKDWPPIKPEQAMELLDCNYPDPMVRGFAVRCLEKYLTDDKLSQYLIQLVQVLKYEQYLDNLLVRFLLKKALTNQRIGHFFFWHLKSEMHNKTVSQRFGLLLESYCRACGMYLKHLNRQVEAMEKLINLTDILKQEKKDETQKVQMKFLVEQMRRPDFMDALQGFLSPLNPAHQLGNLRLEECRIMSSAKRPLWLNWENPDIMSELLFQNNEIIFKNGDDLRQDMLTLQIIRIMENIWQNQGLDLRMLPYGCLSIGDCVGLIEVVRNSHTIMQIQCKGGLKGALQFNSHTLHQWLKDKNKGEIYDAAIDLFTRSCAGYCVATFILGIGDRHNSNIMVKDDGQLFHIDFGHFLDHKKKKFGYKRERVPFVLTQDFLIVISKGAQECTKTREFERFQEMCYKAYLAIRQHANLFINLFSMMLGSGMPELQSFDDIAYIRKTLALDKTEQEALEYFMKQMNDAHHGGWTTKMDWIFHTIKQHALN
Sequence (P27986 whole entry partner, species assumed): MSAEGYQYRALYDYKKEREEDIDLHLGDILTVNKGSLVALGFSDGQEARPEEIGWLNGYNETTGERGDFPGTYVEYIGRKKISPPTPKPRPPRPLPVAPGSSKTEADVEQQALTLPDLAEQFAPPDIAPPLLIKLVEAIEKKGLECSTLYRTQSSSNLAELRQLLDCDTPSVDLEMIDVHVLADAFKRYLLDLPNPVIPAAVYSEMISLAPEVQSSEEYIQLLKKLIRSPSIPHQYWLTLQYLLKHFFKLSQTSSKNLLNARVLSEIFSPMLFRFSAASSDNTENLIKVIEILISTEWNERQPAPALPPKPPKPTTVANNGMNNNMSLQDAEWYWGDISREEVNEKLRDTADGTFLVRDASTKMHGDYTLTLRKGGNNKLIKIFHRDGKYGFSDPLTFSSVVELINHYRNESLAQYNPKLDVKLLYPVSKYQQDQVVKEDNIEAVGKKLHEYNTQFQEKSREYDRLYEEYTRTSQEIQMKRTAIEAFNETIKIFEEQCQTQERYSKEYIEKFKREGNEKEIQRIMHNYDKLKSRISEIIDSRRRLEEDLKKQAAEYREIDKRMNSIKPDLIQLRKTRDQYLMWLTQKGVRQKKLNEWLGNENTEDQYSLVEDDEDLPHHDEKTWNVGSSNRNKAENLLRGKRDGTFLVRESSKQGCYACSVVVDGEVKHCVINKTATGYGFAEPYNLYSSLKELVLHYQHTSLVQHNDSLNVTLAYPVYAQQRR
Give just the number in nM; leave the unit off.

[ask] Suppose we examine the compound COc1ncc(-c2ccc3nccc(-c4ccc(Cn5ccnc5)cc4)c3c2)cc1NS(=O)(=O)c1ccc(F)cc1F [Compound 15] ; what IC50 value has been reported?
[reply] 1.1

[ask] Any idea what its IC50 is? The compound is COc1ncc(-c2ccc3nccc(-c4ccc(C)cc4)c3c2)cc1NS(=O)(=O)c1ccc(F)cc1F [Compound 6]
[reply] 4.5

[ask] Give its IC50 value. Item: CN(C)Cc1ccc(-c2ccnc3ccc(-c4cnc(Cl)c(NS(=O)(=O)c5ccc(F)cc5F)c4)cc23)cc1 [Compound 32]
[reply] 0.69

[ask] Item CCN(Cc1ccc(-c2ccnc3ccc(-c4cnc(OC)c(NS(=O)(=O)c5ccc(F)cc5F)c4)cc23)cc1)C1CCCCC1 [Compound 22] has what recorded IC50?
[reply] 1.6

[ask] Report IC50 for CN(CCO)Cc1ccc(-c2ccnc3ccc(-c4cnc(Cl)c(NS(=O)(=O)c5ccc(F)cc5F)c4)cc23)cc1 [Compound 37] please.
[reply] 0.75

[ask] // lookup IC50 for COc1ncc(-c2ccc3nccc(Cl)c3c2)cc1NS(=O)(=O)c1ccc(F)cc1F [Compound 4]
[reply] 2.3

[ask] What value of IC50 has been reported for the following compound? COC(=O)c1ccc(-c2ccnc3ccc(-c4cnc(OC)c(NS(=O)(=O)c5ccc(F)cc5F)c4)cc23)cc1 [Compound 7]
[reply] 1.5

[ask] Tell me the measured IC50 of COc1ncc(-c2ccc3nccc(-c4ccc(Cn5ccnc5C)cc4)c3c2)cc1NS(=O)(=O)c1ccc(F)cc1F [Compound 16] , please.
[reply] 0.95

[ask] Looking for the measured IC50 of COc1ncc(-c2ccc3nccc(-c4ccc(CN(C)CCN(C)C)cc4)c3c2)cc1NS(=O)(=O)c1ccc(F)cc1F [Compound 24] , can you help?
[reply] 2.5

[ask] Consider the compound shown here: COc1ncc(-c2ccc3nccc(-c4ccc(Cn5cncn5)cc4)c3c2)cc1NS(=O)(=O)c1ccc(F)cc1 [Compound 34] What is its recorded IC50?
[reply] 0.91

[ask] Name the reported IC50 value associated with the compound O=S(=O)(Nc1cc(-c2ccc3nccc(-c4ccc(CN5CCOCC5)cc4)c3c2)cnc1Cl)c1ccc(F)cc1 [Compound 28]
[reply] 1.5

[ask] Fill in the blank: the reported IC50 of COc1ncc(-c2ccc3nccc(-c4ccc(Cn5cccn5)cc4)c3c2)cc1NS(=O)(=O)c1ccc(F)cc1F [Compound 21] is ____.
[reply] 1.1

[ask] Quick one: IC50 of COc1ncc(-c2ccc3nccc(-c4ccc(CN(C)CCO)cc4)c3c2)cc1NS(=O)(=O)c1ccc(F)cc1 [Compound 38] ?
[reply] 4.8

[ask] # lookup: IC50 of COc1ncc(-c2ccc3nccc(-c4ccc(Cn5cncn5)cc4)c3c2)cc1NS(=O)(=O)c1ccc(F)cc1F [Compound 10]
[reply] 0.65

[ask] // query IC50 value for entry O=S(=O)(Nc1cc(-c2ccc3nccc(-n4cncn4)c3c2)cnc1Cl)c1ccc(F)cc1 [Compound 27]
[reply] 0.81

[ask] Return reported IC50; argument: COc1ncc(-c2ccc3nccc(-c4ccc(CN5CCN(C)CC5)cc4)c3c2)cc1NS(=O)(=O)c1ccc(F)cc1F [Compound 23]
[reply] 1.3
